# System: SF-539
# measurement_notes: NCI tumour cell line growth inhibition, 48 h
Activity calls are given as the source filed them. Rule as the data show it: active = GI50 up to about 1.1 µM and inactive = higher.
For each of the compounds below, state its GI50.

O=S1(=O)NN=C(NCc2ccc(F)cc2)c2ccccc21 = > 85.5 µM (inactive)
COCCOCCOC1=C(Cl)C(=O)c2c(O)ccc(O)c2C1=O = 1.67 µM (inactive)
Cn1c(-c2ccc[se]2)ccc1-c1ccc(C=O)[se]1 = 3.89 µM (inactive)
O=[N+]([O-])c1cccc(C2=NOC3C4CCC(C4)C23)c1 (stereo not given) = > 100 µM (inactive)
N=C(N)N/N=C\c1c(-c2ccccc2)nc2sccn12 = 16.5 µM (inactive)

List the reported GI50 of each compound below.
1. CC(C)(CCl)NC(=O)c1cccc(C(=O)NC(C)(C)CCl)n1
2. NC1=NC2=c3ccccc3=C(c3cnccn3)C2(c2cnccn2)c2ccccc21 (stereo not given)

Reply:
["> 100 µM (inactive)", "80.5 µM (inactive)"]

* * *

# Test system: M19-MEL
# measurement_notes: NCI tumour cell line growth inhibition, 48 h
Calls of active or inactive are those of the source. Cut-off read from the data, not from the text of the source: active = GI50 up to about 1.1 µM and inactive = higher. *1 amine or outer side, *2 acyl side, *3 side chain or, on linkers, in order; H or OH if unused. Where a SMILES comes first, the peptide text is derived from it. Bridges are numbered along the chain shown (N, C = ends). [ ]: non-standard residue; d: D form. The star is where a group is joined. X56 = CC(C)C(C)C(C(=O)[*:2])N(C)[*:1]; Picolinoyl(3-OH) = O=C(c1ncccc1O)*; NMePhg = CN[CH](C(=O)O)c1ccccc1; Hyp = O=C(O)[CH]1C[CH](O)CN1; Sar = CNCC(=O)O
recorded_metric: GI50

CCOC(=O)c1ccc(O)cc1 [ETHYLPARABEN] = > 100 µM (inactive)
Cc1ccc(C(=O)N(C(C)C)C(C)C)cc1/N=N/N(C)C = > 100 µM (inactive)
CC(C)CC1NC(=O)C(NC(=O)c2ncccc2O)C(C)OC(=O)C(c2ccccc2)N(C)C(=O)C(C)NC(=O)C(C(C)C(C)C)N(C)C(=O)CN(C)C(=O)C2CC(O)CN2C1=O (centres undefined) ({Picolinoyl(3-OH)}-TL[Hyp][Sar][X56]A[NMePhg]; ester 1-C; configuration not given here) = 68.2 µM (inactive)

Ask: # value lookup — system M19-MEL, readout GI50, item CN=[S+]([O-])(c1ccccc1)c1ccccc1
Reply: > 100 µM (inactive)

* * *

Please provide measured GI50 for the entries that follow.
# Test system: T47D
# measurement_notes: NCI tumour cell line growth inhibition, 48 h
The source made the active and inactive calls. No stated cut-off is given here; in the data, active = GI50 up to about 1.1 µM and inactive = higher.

Some molecules with recorded GI50:
CCOC(=O)C(CC(C)C)NC(=O)C(Cc1ccc(N(CCCl)CCCl)cc1)NC(C)=O (stereo not given) = 2.17 µM (inactive)
Cc1ccc(SCC(CF)OC(C)n2cnc3c(O)nc(N)nc32)cc1 (stereo not given) = 49.1 µM (inactive)
CC(C)(C)OC(=O)N1CCCC1C(=O)NC(c1ccccc1)c1ccccc1 (stereo not given) = > 100 µM (inactive)
CC1(C)CC(=O)C2=C(C1)c1c(ccc3ccccc13)NC2c1cn(Cc2ccc(Cl)cc2)c2ccccc12 (stereo not given) = 7.19 µM (inactive)
CC[C@@]1(N(C)C)C(=O)OCc2c1cc1n(c2=O)Cc2cc3ccccc3nc2-1 = 18.9 µM (inactive)
O=c1c2cc(I)ccc2nc(-c2cccs2)n1/N=C/c1ccccc1 = 80.5 µM (inactive)
O=C(O)/C=C/C(=O)Nc1nc[nH]n1 = > 100 µM (inactive)
CC1(C)CCCOc2cccc(c2)OCCCC(C)(C)C1=O = 31.8 µM (inactive)
CC1(C)C(C(=O)OC(C#N)c2cccc(OCC(=O)OCc3ccccc3)c2)C1(C)C (stereo not given) = 45.8 µM (inactive)

Let us move to another entry and its GI50.
Ask: Please tell me: GI50 of CCCCCC(=O)OCC1(CO)C/C(=C\CC(C(C)C)C(C)C)C(=O)O1 (stereo not given) , system T47D?
Reply: > 100 µM (inactive)
